As shown below, each of these compounds has a reported IQ (% change from DMSO) value.
system: ubiquinone-binding site of complex I (site IQ); test: Site-specific H2O2 production from site IQ in skeletal muscle mitochondria; format: biochemical, rat; conditions: primary screen, ∼2.5 µM, average of duplicates; 5 mM succinate;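 further: H2O2 from superoxide detected by Amplex UltraRed fluorescence with added superoxide dismutase and horseradish peroxidase, endpoint read 30–40 min after substrate addition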
Reported property: IQ (% change from DMSO) (%)

>>> recorded_value("COc1ccc(C(=O)Nc2ccc(S(=O)(=O)Nc3nc(C)cc(C)n3)cc2)c(OC)c1 [compound 5219504]")
-19.3
>>> recorded_value("O=C(Cc1ccccc1)Nc1cc(C(=O)O)c(NC(=O)Cc2ccccc2)cc1C(=O)O [compound 5181020]")
-35.6
>>> recorded_value("O=S(=O)(Nc1ccc(O)c(Br)c1)c1ccc(Cl)cc1 [compound 5158529]")
-50.5
>>> recorded_value("Nc1cc(S(=O)(=O)c2ccc(O)c(N)c2)ccc1O [compound 5105145]")
-49.7
>>> recorded_value("Cc1ccc(S(=O)(=O)c2cc(O)ccc2O)cc1C [compound 5210729]")
-40.9
>>> recorded_value("O=C(O)CSc1cccc(C(=O)Nc2ccc(Br)cc2)c1 [compound 5210767]")
-0.0908
>>> recorded_value("Nc1ccccc1S(=O)(=O)Nc1cccc2cccnc12 [compound 5175136]")
-18.9
>>> recorded_value("Cc1ccc(S(=O)(=O)CCC#N)cc1C [compound 5210670]")
0.4
>>> recorded_value("CC(C)CSC(CC(=O)O)C(=O)O (centres unmarked) [compound 5152843]")
-6.2
>>> recorded_value("Cc1nc2ccc(Cl)cc2c2c(N)c3ccccc3n12 [compound 5219795]")
-14.8
>>> recorded_value("c1coc(CNc2ccc3c(c2)OCO3)c1 [compound 5457094]")
-27.2
>>> recorded_value("CC(C)c1nnc(NC(=O)c2cccc([N+](=O)[O-])c2)s1 [compound 5210298]")
-67.3
>>> recorded_value("CC(=O)c1c(C)n(-c2ccccc2)c2ccc(O)cc12 [compound 5215317]")
-13.7
>>> recorded_value("Cc1ccc(NC(=O)c2ccc(C(C)(C)C)cc2)cc1 [compound 5210384]")
1.4
>>> recorded_value("CCCCSc1nnc2c(n1)[nH]c1ccc(C)cc12 [compound 5225633]")
-2.4
>>> recorded_value("NC(=O)Cc1c[nH]c2cccc(O)c12 [compound 5106694]")
-49.2
>>> recorded_value("Cn1c(/C=C/c2ccc(Cl)cc2)nc2ccccc21 [compound 5663561]")
-3.9
>>> recorded_value("CC1=Nc2c([nH]c3ccccc23)-c2cc(C)ccc2N1.Cl [compound 5219818]")
-50.1
>>> recorded_value("O=C1N=C(c2ccccc2)C(c2ccccc2)N1 (centres unmarked) [compound 5162292]")
-4.2
>>> recorded_value("CN(C)c1nc2ccc(O)cc2s1 [compound 5195231]")
-66.7

###

tested on: flavin mononucleotide site of complex I (site IF) plus matrix NAD-linked dehydrogenases (site IF/DH); experiment: Site-specific H2O2 production from site IF/DH in skeletal muscle mitochondria; type: biochemical, rat; conditions: primary screen, ∼2.5 µM, average of duplicates
Reported property: IF/DH (% change from DMSO) (%)

>>> recorded_value("O=C(O)CSc1cccc(C(=O)Nc2ccc(Br)cc2)c1")
-0.5
>>> recorded_value("CCN1CCN(C/C=C/c2ccc(N(C)C)cc2)CC1")
-6.5
>>> recorded_value("COc1cc(CN2CCOCC2)ccc1O")
-12.7
>>> recorded_value("CCCCc1c(C(=O)O)cc(C)cc1C(=O)O")
-13.1
>>> recorded_value("COc1ccc(O)c(CN2CCC(N3CCCCC3)CC2)c1")
-15.5
>>> recorded_value("Cc1nc2ccc(Cl)cc2c2c(N)c3ccccc3n12")
-30.5
>>> recorded_value("Nc1ccc(-c2nc3ccc(N)cc3[nH]2)cc1")
-89.7
>>> recorded_value("COc1ccc(CNc2cccc(N(C)C)c2)cc1")
-33.7
>>> recorded_value("CC(=O)c1c(C)n(-c2ccccc2)c2ccc(O)cc12")
-34.7
>>> recorded_value("O=C(Cc1ccccc1)Nc1cc(C(=O)O)c(NC(=O)Cc2ccccc2)cc1C(=O)O")
-40.9
>>> recorded_value("Nc1ccccc1S(=O)(=O)Nc1cccc2cccnc12")
-42.5
>>> recorded_value("CC1(C)CC(=O)C2=C(C1)Nc1cc(Cl)ccc1S2")
-91.8
>>> recorded_value("CCC1CCCCN1C/C=C/c1ccc(N(C)C)cc1 (stereo not shown)")
-23.1
>>> recorded_value("Cc1ccc(NC(=O)c2ccc(C(C)(C)C)cc2)cc1")
6.3
>>> recorded_value("CCCCSc1nnc2c(n1)[nH]c1ccc(C)cc12")
16.4
>>> recorded_value("c1coc(CNc2ccc3c(c2)OCO3)c1")
-27.2
>>> recorded_value("Nc1cc(S(=O)(=O)c2ccc(O)c(N)c2)ccc1O")
-62.0
>>> recorded_value("COc1ccc(NCc2ccccc2)cc1")
-41.3
>>> recorded_value("COc1ccc(C(=O)Nc2ccc(S(=O)(=O)Nc3nc(C)cc(C)n3)cc2)c(OC)c1")
-30.7
